// provenance: the supplement of paper PMC12042874

Kindly state amyloid nucleation score for each of the entries shown.
measurement_description: amyloid nucleation score (Sup35N fusion, yeast selection) (log enrichment); library NNK2; higher = more nucleation; inactive = no reads after selection;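 also: zero at mode of non-aggregating sequences after 7 days selection at 30°C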
Numbers only.

A selection of reference data follows.
| primary_sequence | amyloid nucleation score |
| --- | --- |
| NRTTSVWG | -0.889 |
| SYGNEFMM | 0.363 |

State the recorded amyloid nucleation score for this entry: IGNRQVDFISDGAG
0.034

====

measurement_description: amyloid nucleation score (Sup35N fusion, yeast selection) (log enrichment); library NNK3; higher = more nucleation; inactive = no reads after selection
measured_attribute: amyloid nucleation score

See these solved cases before continuing.
| substance | measured_attribute | data_value |
| --- | --- | --- |
| WSFNGSNECISRLDINLNVF | amyloid nucleation score | 0.407 |
| RQCGVVIKFLMISTLISSIA | amyloid nucleation score | inactive |
| RGGRYDFMCDTCSLIVFASV | amyloid nucleation score | -0.645 |
| CFWFNHSNRRGQFFH | amyloid nucleation score | -0.286 |

Below are 8 substances. Give each one its amyloid nucleation score.
1. FECMRELPRAPTKPGSWRHA
2. CCNDWR
3. VWVLYGKITVPSPKARMGKT
4. EFALTIWCLGAALCIIKSLS
5. VYNLIRLFLYPTVISSITPL
6. FHFFYYTLFNCHHGLFTSFF
7. NDRIYCGGDYPTNH
8. VTFLHGCIDFAGSYSAGSSD

["inactive", "inactive", -0.083, "inactive", "inactive", "inactive", "inactive", "inactive"]

Your task in this section: give amyloid nucleation score for each listed record.
1. RYDLSVSIATMVNVYFLLRG
2. ALGIYRTIYCVIVFG
3. FLRNIFDGRTWTFKDSNMSH
4. SSKNINVILMIKR

1. inactive
2. inactive
3. inactive
4. 2.05

// for each substance in input: emit amyloid nucleation score
1. QWSNCDMASAYYAYRNLNAD
2. HHLSSDVSVLAFCNLPESNR
3. CAQMPCMLENGP
4. MYFSFLW
5. YKNSWLKW

1. inactive
2. 1.21
3. inactive
4. 0.18
5. inactive

// each listed substance needs a value for amyloid nucleation score
1. TFCSTCGDLWGSDFKCGFRV
2. YVYGKNGARGDSIREMGPSE
3. SEASQRLLYTMVWTAHTQVM
4. SLSEEYDTLPATWTAQVCKR
5. SRWTEACI
6. YSRLEFKRWHVVIDSWRWMD
7. PMYPGIVGSRAIMQRLVGCC

inactive
inactive
inactive
inactive
inactive
inactive
inactive

If you can, please state the reported amyloid nucleation score value of LNRSSFHLELITSTCKVFLV .
inactive
